Just for reference, ChEMBL document CHEMBL1151855 is where these values come from.

Target: Adenosine receptor A2a (Homo sapiens)
Sequence (P29274 whole entry): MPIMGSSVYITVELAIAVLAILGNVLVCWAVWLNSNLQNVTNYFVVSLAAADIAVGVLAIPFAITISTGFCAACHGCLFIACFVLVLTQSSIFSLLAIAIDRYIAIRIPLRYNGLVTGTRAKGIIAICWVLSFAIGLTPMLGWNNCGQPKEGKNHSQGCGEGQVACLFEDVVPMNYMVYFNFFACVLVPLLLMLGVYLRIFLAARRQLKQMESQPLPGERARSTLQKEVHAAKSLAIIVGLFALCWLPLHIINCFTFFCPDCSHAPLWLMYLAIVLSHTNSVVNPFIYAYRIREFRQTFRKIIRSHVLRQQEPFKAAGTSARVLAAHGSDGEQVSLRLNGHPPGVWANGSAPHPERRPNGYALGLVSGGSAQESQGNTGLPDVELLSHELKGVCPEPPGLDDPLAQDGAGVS
Experiment: Displacement of [3H]ZM241385 from human adenosine A2a receptor expressed in human HeLa cells at 1 uM
Assay type: cell-based
Value type: Activity (%)

- CCOCCn1c(=O)c2[nH]c(-c3ccccc3)nc2n(CCCOC)c1=O: 51
- CCCn1c(=O)c2[nH]c(-c3cccs3)nc2n(CCCOC)c1=O: 25
- CCn1c(=O)c2c(nc(-c3ccc(-c4ccccc4)cc3)n2C)n(CCCOC)c1=O: 5
- CCS(=O)(=O)CCn1c(=O)c2[nH]c(-c3ccccc3)nc2n(CCCOC)c1=O: 20
- CCSCCn1c(=O)c2[nH]c(Cc3ccco3)nc2n(CCCOC)c1=O: 1
